- assaySystem: human TET2 construct (Homo sapiens, UniProt Q6N021, A1837G/A1840G/D1704G/D1842G/DEL1471-1702/DEL1708-1833/E1841G/F1706G/N1843S/Q1834G/V1836G)
- assayProtocol: Determination of TET2 binding by Surface Plasmon Resonance
- studyConditions: SPR, Biacore T200, 25° C., steady state fit to single site interaction model
pKd: −log10 of the molar value.
reportedEndpoint: pKd

Previously resolved entries follow.
Cc1[nH]c2ccccc2c1-c1csc(NC(=O)Cc2cc3ccccc3[nH]2)n1	5.30
Cc1[nH]c2ccccc2c1-c1csc(NC(=O)Cc2nc3ccccc3o2)n1	4.80

A. Cc1[nH]c2ccccc2c1-c1coc(NC(=O)Cc2cn3ccsc3n2)n1
B. Cc1[nH]c2ccccc2c1-c1csc(N(C)C(=O)C(C)c2cn3ccsc3n2)n1 (stereo not shown)
Ask: Sorting ascending by pKd, which comes first: A or B ? Write down the label attached to your selection.
Result: A
(A: 4.68, B: 4.96)

----------
melting point overview

COc1ccc2[nH]c(C)c(-c3csc(NC(=O)Cc4cn5ccsc5n4)n3)c2c1	143 to 144 °C

Ask: Entry O=C(Cc1cn2ccsc2n1)Nc1nc(-c2c[nH]c3ccc([N+](=O)[O-])cc23)cs1 has what melting point?
Result: 232 to 234 °C

Ask: # melting point lookup, item Cc1[nH]c2ccccc2c1-c1csc(NC(=O)Cc2c[nH]cn2)n1
Result: 107 to 112 °C

Ask: Fill in: melting point of Cc1[nH]c2ccccc2c1-c1csc(NC(=O)Cc2c[nH]c3ccccc23)n1 is ___
Result: 246 to 248 °C

Ask: Suppose we examine the compound Cc1[nH]c2ccccc2c1-c1csc(NC(=O)Cc2cn3c(C)csc3n2)n1 ; what melting point value has been reported?
Result: 145 to 148 °C

Ask: # input compound: Cc1ccc2[nH]cc(-c3csc(NC(=O)Cc4cn5ccsc5n4)n3)c2c1 ; wanted: its melting point
Result: 160 to 162 °C

Ask: Could you tell me which melting point is on file for Cc1[nH]c2ccccc2c1-c1csc(N(C)C(=O)C(C)c2cn3ccsc3n2)n1 (stereo not drawn) ?
Result: 85 to 88 °C

Ask: I would be grateful if you could share the reported melting point for Cc1[nH]c2ccccc2c1-c1csc(NC(=O)Cc2c[nH]c3ccc(F)cc23)n1 .
Result: 230 to 232 °C

Ask: Name the reported melting point value associated with the compound Cc1[nH]c2ccc([N+](=O)[O-])cc2c1-c1csc(NC(=O)Cc2cn3ccsc3n2)n1
Result: 150 to 151 °C

FYI, the data here is from patent US20240208998A1.
